Procedure text: Drug uptake in CD1 mouse brain at 1 mg/kg, iv at 2 hrs
Assay type: ADME, organism-based
Parameters: dose 1 mg/kg, route intravenous
Applied conditions: read-out: Drug uptake
Readout type: concentration at 2 h (nM)
// return numeric value only (unit: nM, not printed)

Determine from records and report concentration at 2 h for "CC(C)[C@@H](OC(=O)N1CCC1)[C@H]1C[C@@H](C)[C@H]2[C@H](O1)[C@H](O)[C@@]1(C)[C@@H]3CC[C@H]4C(C)(C)[C@@H](O[C@H]5CNCCO5)CC[C@@]45C[C@@]35CC[C@]21C"
30

###

Procedure text: Clearance in CD1 mouse at 1 mg/kg, iv
Applied conditions: in vivo
Readout type: clearance (mL/min/kg)
// return numeric value only (unit: mL/min/kg, not printed)

Determine from records and report clearance for "CCO[C@@H]([C@H]1C[C@@H](C)[C@H]2[C@H](O1)[C@H](O)[C@@]1(C)[C@@H]3CC[C@H]4C(C)(C)[C@@H](O[C@H]5CN(CCOC)CCO5)CC[C@@]45C[C@@]35CC[C@]21C)C(C)(C)O"
4.83

###

Procedure text: Volume of distribution in CD1 mouse at 1 mg/kg, iv
Applied conditions: in vivo
Readout type: Vd (L/kg)
// return numeric value only (unit: L/kg, not printed)

Determine from records and report Vd for "CCO[C@@H]([C@H]1C[C@@H](C)[C@H]2[C@H](O1)[C@H](O)[C@@]1(C)[C@@H]3CC[C@H]4C(C)(C)[C@@H](O[C@H]5CN(CCOC)CCO5)CC[C@@]45C[C@@]35CC[C@]21C)C(C)(C)O"
0.42

###

Procedure text: Metabolic stability in human liver microsomes assessed as compound remaining at 1 uM at 60 mins by LC/MS/MS analysis in absence of NADPH
Type: ADME, Microsome
Applied conditions: liver microsomes, read-out: Stability
# if measured remaining at 1 h, 1 µM < 80%: YES  # else: NO

State whether 80% exceeds remaining at 1 h, 1 µM recorded for "CNC(=O)O[C@H](C(C)C)[C@H]1C[C@@H](C)[C@H]2[C@H](O1)[C@H](O)[C@@]1(C)[C@@H]3CC[C@H]4C(C)(C)[C@@H](OC(=O)NC5CNC5)CC[C@@]45C[C@@]35CC[C@]21C" .
NO

State whether 80% exceeds remaining at 1 h, 1 µM recorded for "CC(=O)O[C@@H]([C@H]1C[C@@H](C)[C@H]2[C@H](O1)[C@H](O)[C@@]1(C)[C@@H]3CC[C@H]4C(C)(C)[C@@H](O[C@H]5CN(C(=O)CC6CC6)CCO5)CC[C@@]45C[C@@]35CC[C@]21C)C(C)(C)O" .
YES

State whether 80% exceeds remaining at 1 h, 1 µM recorded for "CC(=O)O[C@@H]([C@H]1C[C@@H](C)[C@H]2[C@H](O1)[C@H](O)[C@@]1(C)[C@@H]3CC[C@H]4C(C)(C)[C@@H](O[C@H]5CN(C6COC6)CCO5)CC[C@@]45C[C@@]35CC[C@]21C)C(C)(C)O" .
YES

State whether 80% exceeds remaining at 1 h, 1 µM recorded for "CC(C)[C@@H](OC(=O)N(C)C)[C@H]1C[C@@H](C)[C@H]2[C@H](O1)[C@H](O)[C@@]1(C)[C@@H]3CC[C@H]4C(C)(C)[C@@H](OC(=O)N5CCOCC5)CC[C@@]45C[C@@]35CC[C@]21C" .
NO

State whether 80% exceeds remaining at 1 h, 1 µM recorded for "C=C(C)CO[C@@H]([C@H]1C[C@@H](C)[C@H]2[C@H](O1)[C@H](O)[C@@]1(C)[C@@H]3CC[C@H]4C(C)(C)[C@@H](O[C@H]5CN(C6COC6)CCO5)CC[C@@]45C[C@@]35CC[C@]21C)C(C)(C)O" .
NO

State whether 80% exceeds remaining at 1 h, 1 µM recorded for "CC(C)[C@@H](OC(=O)N(C)C)[C@H]1C[C@@H](C)[C@H]2[C@H](O1)[C@H](O)[C@@]1(C)[C@@H]3CC[C@H]4C(C)(C)[C@@H](O[C@H]5CNCCO5)CC[C@@]45C[C@@]35CC[C@]21C" .
NO

State whether 80% exceeds remaining at 1 h, 1 µM recorded for "CC(C)[C@@H](OC(N)=O)[C@H]1C[C@@H](C)[C@H]2[C@H](O1)[C@H](O)[C@@]1(C)[C@@H]3CC[C@H]4C(C)(C)[C@@H](O[C@H]5CNCCO5)CC[C@@]45C[C@@]35CC[C@]21C" .
NO

State whether 80% exceeds remaining at 1 h, 1 µM recorded for "CCO[C@H](C(C)C)[C@H]1C[C@@H](C)[C@H]2[C@H](O1)[C@H](O)[C@@]1(C)[C@@H]3CC[C@H]4C(C)(C)[C@@H](O)CC[C@@]45C[C@@]35CC[C@]21C" .
NO

State whether 80% exceeds remaining at 1 h, 1 µM recorded for "COC(=O)OC[C@H]1C[C@@H](C)[C@H]2[C@H](O1)[C@H](O)[C@@]1(C)[C@@H]3CC[C@H]4C(C)(C)[C@@H](O[C@H]5CN(C(=O)CC6CC6)CCO5)CC[C@@]45C[C@@]35CC[C@]21C" .
YES

State whether 80% exceeds remaining at 1 h, 1 µM recorded for "CC(=O)OC[C@H]1C[C@@H](C)[C@H]2[C@H](O1)[C@H](O)[C@@]1(C)[C@@H]3CC[C@H]4C(C)(C)[C@@H](O[C@H]5CN(C6COC6)CCO5)CC[C@@]45C[C@@]35CC[C@]21C" .
YES

State whether 80% exceeds remaining at 1 h, 1 µM recorded for "CCO[C@@H]([C@H]1C[C@@H](C)[C@H]2[C@H](O1)[C@H](O)[C@@]1(C)[C@@H]3CC[C@H]4C(C)(C)[C@@H](OC(N)=O)CC[C@@]45C[C@@]35CC[C@]21C)C(C)(C)O" .
NO

State whether 80% exceeds remaining at 1 h, 1 µM recorded for "C[C@@H]1C[C@H]([C@H](OC(=O)N(C)C)C(C)(C)O)O[C@H]2[C@H]1[C@@]1(C)CC[C@@]34C[C@@]35CC[C@H](O)C(C)(C)[C@@H]5CC[C@H]4[C@]1(C)[C@H]2O" .
NO

State whether 80% exceeds remaining at 1 h, 1 µM recorded for "CC(C)[C@@H](OC(N)=O)[C@H]1C[C@@H](C)[C@H]2[C@H](O1)[C@H](O)[C@@]1(C)[C@@H]3CC[C@H]4C(C)(C)[C@@H](OC(N)=O)CC[C@@]45C[C@@]35CC[C@]21C" .
NO

The measurements presented in this section are drawn from ChEMBL document CHEMBL2203235.
